# Test system: SF-295 CNS
# experiment-summary: NCI tumour cell line growth inhibition, 48 h
measured-metric: TGI (µM)
Reply with just the number (in µM).

Please review the entries below; each comes with its answer.
{"compound": "Cc1nnc(N/N=C(/C(=O)C(C#N)c2ccc(Cl)cc2)C(C#N)c2ccc(Cl)cc2)n1N (centres undefined)", "test-target": "SF-295 CNS", "TGI, µM": 30.9}
{"compound": "CC(C)=CC(=O)OC1C2C(C)=CC(O)C(O)C2(C)C2C3(O)OCC24C(CC(=O)OC14)C(C)C3O (centres undefined)", "test-target": "SF-295 CNS", "TGI, µM": 0.81}

Incoming: Tell me its TGI on SF-295 CNS: N#CC1C(N)=NNC12Nc1ccccc1S2 (centres undefined)
Outgoing: 64.2

Incoming: Tell me its TGI on SF-295 CNS: COC1=C2CC(C)CC(OC)C(OC(=O)CCCN)C(C)/C=C(\C)C(OC(N)=O)C(OC)/C=C\C=C(/C)C(=O)NC(=CC1=O)C2=O (centres undefined)
Outgoing: 31.1

Incoming: Tell me its TGI on SF-295 CNS: COc1ccc(OC)c(Cc2cnc3nc(N)nc(N)c3c2C)c1
Outgoing: 41.9

Incoming: Tell me its TGI on SF-295 CNS: CC(=O)OCC(CC[CH2][Sn]([Cl])([Cl])[c]1ccccc1)OC(C)=O (centres undefined)
Outgoing: 60

Incoming: Tell me its TGI on SF-295 CNS: C=CC(=O)N[C@@H](/C=C/C(=O)OCC)Cc1ccc(-c2cc(Cl)cc(Cl)c2)cc1
Outgoing: 83.5

Incoming: Tell me its TGI on SF-295 CNS: CN(C)CCCn1c2c(c3cc4c(cc3c1=O)OCO4)C(=O)c1ccccc1-2
Outgoing: 12.5

Incoming: Tell me its TGI on SF-295 CNS: Cc1ccc(/N=N/C(=NNC(=O)c2ccc(C)cc2)c2ccc(N(C)C)cc2)cc1
Outgoing: 76.1

Incoming: Tell me its TGI on SF-295 CNS: COc1cc2c(cc1NC(=O)C(Cl)Cl)-c1ccc(NC(=O)C(Cl)Cl)cc1C2
Outgoing: 1.12

Incoming: Tell me its TGI on SF-295 CNS: O=C1/C(=C/c2ccccc2O)N=C(c2ccccc2)N1c1cc(C(F)(F)F)ccc1Cl
Outgoing: 52.6

Incoming: Tell me its TGI on SF-295 CNS: c1ccc(C2CCCCC2)c(OCCCCCN2CCNCC2)c1
Outgoing: 6.04

---

# System: 786-0 renal
# experiment-summary: NCI tumour cell line growth inhibition, 48 h
measured-metric: TGI

Please review the entries below; each comes with its answer.
{"molecule": "Nc1ccc(-c2nc3ccc(F)cc3s2)cc1I", "TGI": "> 100 µM"}
{"molecule": "Clc1ccc([I+]c2ccc(Cl)cc2Cl)c(Cl)c1", "TGI": "4.36 µM"}
{"molecule": "O=[N+]([O-])C(=C/c1cccc2ccccc12)/C(=C\\c1cccc2ccccc12)[N+](=O)[O-]", "TGI": "3.72 µM"}

Switching to the query record.
Incoming: Let me know recorded TGI for c1ccc(CN2COc3c(ccc4c5c(ccc34)CN(Cc3ccccc3)CO5)C2)cc1 , thanks.
Outgoing: > 100 µM

---

# Tested on: A549 NSCLC
# experiment-summary: NCI tumour cell line growth inhibition, 48 h
measured-metric: TGI

Please review the entries below; each comes with its answer.
{"molecule": "CN(C)CC(/C(Cc1ccccc1)=N\\NC(=S)NN)c1ccccc1 (stereo unspecified)", "TGI": "> 100 µM"}
{"molecule": "CCOC(=O)/C=C/C1(CCOC(C)=O)CCCCC1", "TGI": "> 10 µM"}

Incoming: Let me know recorded TGI for c1ccc2c(-c3csc(-c4c[nH]c5ccccc45)n3)c[nH]c2c1 , thanks.
Outgoing: > 100 µM

Incoming: Let me know recorded TGI for Cc1ccc(/C=C2\Cc3cc(C)c(C)cc3C2=O)c(C(=O)O)c1 , thanks.
Outgoing: > 100 µM

Incoming: Let me know recorded TGI for Cc1ccc(Cl)cc1-n1c(C)nc2c(cnn2-c2ccnc3c(C(F)(F)F)cccc23)c1=O , thanks.
Outgoing: > 100 µM

Incoming: Let me know recorded TGI for C=CC(=O)N[C@@H](/C=C/C(=O)OCC)Cc1ccc(-c2cc(Cl)cc(Cl)c2)cc1 , thanks.
Outgoing: > 100 µM

Incoming: Let me know recorded TGI for O=C(CO)C1CC2C=CC1C2 (stereo unspecified) , thanks.
Outgoing: > 100 µM
